Classes (MDR1-MDCK efflux ratio): one (below 0.8), two (0.8 to below 4), three (4 or more)

# input Where would `Cc1ccc(Oc2ccc(Cl)cc2NC(=O)CN(C)CC(=O)N(C)C)cc1` land among the classes by reported MDR1-MDCK efflux ratio?
# output two

# input Using the reported MDR1-MDCK efflux ratio, which band applies to `CC(C)C(=O)N1CCn2nc(CNC3CCc4ccccc4CC3)cc2C1` ?
# output three

====

Class assignment keyed on MDR1-MDCK efflux ratio, ranges bottom end (below 0.7), midrange (0.7 to below 2), top end (2 or more)

Here's what some known entries look like.
{"compound": "O=c1cc2c(n[nH]1)-c1cnc(N3CCCC3)nc1CC2", "label class": "midrange"}
{"compound": "Cc1cccc(C)c1OCC(=O)N(C)[C@@H]1CCC[C@@H](O)[C@@H]1O", "label class": "top end"}
{"compound": "Cc1cccc(NC(=O)CSc2nncs2)c1", "label class": "bottom end"}
{"compound": "N#CCCN(C(=O)c1sccc1C#N)C12CC3CC(CC(C3)C1)C2", "label class": "midrange"}
{"compound": "Cc1cc(NC(=O)C2CCN(c3ccncc3Cl)CC2)no1", "label class": "bottom end"}
{"compound": "Cc1ccc(CN2CC[C@H](c3nnc(-c4ccccc4F)o3)C2)o1", "label class": "bottom end"}

Then this compound:
# input Class (by measured MDR1-MDCK efflux ratio) for `CNc1nc(C)cc(C(=O)Nc2ccc3[nH]ncc3c2)n1`
# output bottom end

====

Details: pH 6.8
Classify as follows. Reported aqueous solubility greater than or equal to 30 µg/mL: Condition met. Reported aqueous solubility below: Condition not met.

Worked set:
{"compound": "CC(=O)N[C@H]1/C(=N\\OC(=O)Nc2ccccc2)O[C@H](CO)[C@H](O)[C@@H]1O", "label class": "Condition met"}
{"compound": "CSCc1c(C(=O)NC(C)C)oc2ccccc12", "label class": "Condition not met"}
{"compound": "CCCc1nc2nc(C)c(NS(=O)(=O)c3ccc(C4CCCCC4)cc3)c(O)n2n1", "label class": "Condition met"}

# input Hi team, for `O=C(Nc1cc(Cl)ccc1Cl)c1cccc(N2CCCC2=O)c1` , is the recorded aqueous solubility at or above 30 µg/mL?
# output Condition met

# input Quick check, aqueous solubility >= 30 µg/mL? `COc1cc(F)ccc1-c1ncccc1NC(=O)C(C)C`
# output Condition met

# input Assess whether reported aqueous solubility for `CNC(=O)c1cc(-c2ccccc2)no1` sits at 30 µg/mL or higher.
# output Condition met

====

Threshold-based label: intrinsic clearance, rat liver microsomes under 6 L/h/kg gives Criterion met, intrinsic clearance, rat liver microsomes not under 6 L/h/kg gives Criterion not met.

# input Threshold test, intrinsic clearance, rat liver microsomes < 6 L/h/kg: `Cc1ccc2cccc(OCC(=O)N(C)c3ccccc3)c2n1`
# output Criterion not met

# input Strictly below 6 L/h/kg in intrinsic clearance, rat liver microsomes? Cc1cc(Nc2ccc(F)cn2)cc(C2CCN(C(=O)Cn3nc(C)ccc3=O)C2)n1 (configuration not stated)
# output Criterion met

# input Answer whether the molecule `Nc1cncc(-c2ccc(CN3CCCCC3)cc2)c1` has intrinsic clearance, rat liver microsomes strictly less than 6 L/h/kg
# output Criterion met

# input Check if intrinsic clearance, rat liver microsomes falls below 6 L/h/kg for `COc1cccc(OCCCn2cncc2-c2cc3c(cc2OC)OCCCO3)c1` .
# output Criterion not met

# input A record lists `Cc1ccccc1CNC(=O)c1ccc(-n2ccnc2)nc1` . Is its intrinsic clearance, rat liver microsomes below 6 L/h/kg?
# output Criterion met

====

Details: pH 6.8
readout label: log10(aqueous solubility) (log10 of the value in mg/mL)
Scale: decimal log of aqueous solubility, aqueous solubility in mg/mL.

{"molecule": "Cc1ccc(-c2nc3ccccc3[nH]2)cc1NS(=O)(=O)c1ccc(Cl)cc1", "readout label": "log10(aqueous solubility)", "measurement": -3.55}

# input Please indicate log10(aqueous solubility) recorded for `CON(C)C(=O)c1cc(C)ccc1NS(C)(=O)=O`
# output -1.48

# input Please give measured log10(aqueous solubility) of the following entry: `COc1c(N)ncnc1N1CCCC(C)(C)CC1`
# output -1.42

# input Complete the entry with log10(aqueous solubility) for `CN(Cc1ccc(-c2ccc(Br)cc2)o1)C(=O)c1cnn(C)c1`
# output -2.26

# input Retrieve log10(aqueous solubility) measured for `O=C(NCCc1nnc2n1CCC2)c1ccc2c(c1)CCC2` and print it.
# output -1.63

# input Please supply the value of reported log10(aqueous solubility) for the item `Cc1nnnn1CCCc1ccccc1`
# output -2.25

====

// values below are reported MDR1-MDCK efflux ratio
Keep it simple and answer with nothing but the number.

{"compound": "CC(=O)c1cnc2ccc(-c3cc(Cl)c(O)c(Cl)c3)nc2c1N[C@H]1CC[C@H](CN(C)C)CC1", "MDR1-MDCK efflux ratio": 21.9}

# input Give a short answer stating reported MDR1-MDCK efflux ratio for `Cc1occc1C(=O)NCC(=O)Nc1nc2cc(Cl)ccc2n1C` .
# output 1.31

# input Give the value of MDR1-MDCK efflux ratio reported for the following: `CC(C)CC(=O)NCC(=O)N1CCCC1`
# output 1.2

# input Consider the compound `Cc1cccc(-c2cccc(C(=O)NCCC3(O)CCCC3)c2)n1` and give its recorded MDR1-MDCK efflux ratio.
# output 2.77

====

readout label: fraction unbound, rat plasma
Write no unit; give the number alone.

Recorded results for 2 compounds are shown here.
{"compound": "C=CC(=O)N1C[C@H](Nc2ncnc3[nH]ccc23)CC[C@@H]1C", "readout label": "fraction unbound, rat plasma", "measurement": 0.557}
{"compound": "O=C(Nc1ccc2ccccc2n1)c1ccc(N2CCOC2=O)cc1", "readout label": "fraction unbound, rat plasma", "measurement": 0.0117}

# input Hello, please tell me recorded fraction unbound, rat plasma for this one: `Cc1ccc(C(=O)N2CCC(Cc3ccccc3-c3ccccc3)(C(=O)N(C)C)CC2)s1`
# output 0.00257

# input Answer with the recorded fraction unbound, rat plasma of `Cc1[nH]nc2c1C1(CCCCC1)CC(=O)N2` only.
# output 0.193

# input Please look at this compound and report its fraction unbound, rat plasma: O=C1NCCN(C(=O)c2ccc3nccn3c2)C1c1ccccc1C(F)(F)F (stereo unspecified)
# output 0.633

# input Tell me fraction unbound, rat plasma reported for C=CCc1ccccc1OCC(O)CNC(C)C (stereo unspecified)
# output 0.313

====

readout label: intrinsic clearance, human liver microsomes (mL/min/kg)
Provide the reading as a plain figure in mL/min/kg.

Recorded intrinsic clearance, human liver microsomes, per entry:
{"structure smiles": "CC(=O)N(CC(N)=O)c1ccc(C)cc1", "measurement": 5.04}
{"structure smiles": "CCOc1cc(CNc2ccc(N3CCOCC3)c(C(=O)O)c2)cc(Cl)c1OC", "measurement": 21.1}
{"structure smiles": "CCCc1cc(-c2nn3c(C4CCCC4)nnc3s2)n(C)n1", "measurement": 99.4}
{"structure smiles": "Cc1c(C(=O)NCc2cnc(N(C)C)n2C)sc2ccccc12", "measurement": 17.9}
{"structure smiles": "O=C(NC[C@H]1CCN(c2ccccc2)C1)N1CCc2sccc2C1", "measurement": 226}
{"structure smiles": "Cc1ccc(C(=O)Nc2ccccc2C#N)cc1", "measurement": 88.2}

// moving on: another record for intrinsic clearance, human liver microsomes
# input Annotate the compound `CC(=O)NC1CCN(Cc2cccc(-c3cccnc3)c2)CC1` with its measured intrinsic clearance, human liver microsomes.
# output 6.04

====

Conditions: pH 6.8
readout label: aqueous solubility (µg/mL)
Your answer should be a plain number; it is taken to be in µg/mL.

{"compound": "O=C(Cc1csc(-c2ccc(F)c(F)c2)n1)NCC(F)(F)F", "measurement": 0.36}
{"compound": "Cc1nnc(N2CCC(CNc3ccc(C#N)cn3)C2)c(C#N)c1C (stereo unspecified)", "measurement": 8.15}
{"compound": "Cc1nc(COc2ccc(F)cc2)sc1C(=O)N1CCC(C)CC1", "measurement": 47.4}
{"compound": "CCCCCCCCc1ccc2c(c1)CC[C@@H](C(N)(CO)CO)C2", "measurement": 0.81}
{"compound": "Cc1sc(-c2ccccn2)nc1-c1ccc(NC(=O)C(C)C)cc1", "measurement": 1.41}

# input Return the recorded aqueous solubility value; entry: `Cc1cc(F)ccc1S(=O)(=O)N1CCCc2cnc(N3CCOCC3)nc21`
# output 0.31

====

readout label: MDR1-MDCK efflux ratio
Output spec: single numeric token, no unit.

{"structure smiles": "CCN(C(=O)N1CCC(OC2CCOCC2)CC1)C(C)C", "measurement": 0.763}
{"structure smiles": "Cc1ccc2nc(C)c(C(=O)NOCc3ccccc3)cc2c1", "measurement": 0.666}
{"structure smiles": "O=C(CN1CCCc2ccc(F)cc21)N1CCNC1=O", "measurement": 0.896}
{"structure smiles": "CCn1ncnc1-c1[nH]cnc1-c1ccccc1", "measurement": 2.19}
{"structure smiles": "CC1(C)CCCN1C(=O)c1c(F)cc(C#N)cc1F", "measurement": 0.663}
{"structure smiles": "Cc1nc(Cc2ccccc2)sc1C(=O)Nc1cccc(-c2ccn[nH]2)c1", "measurement": 2.86}

Now for the compound whose MDR1-MDCK efflux ratio we want.
# input Item `COc1ccc2nc(C)nc(NCc3ncc(C)o3)c2c1` : provide MDR1-MDCK efflux ratio
# output 1.39
